- experimental protocol: recombinant barcode read abundance after kanamycin selection (control-corrected) (log10(CPM+1)); higher = more efficient recombination; sequences stand for … in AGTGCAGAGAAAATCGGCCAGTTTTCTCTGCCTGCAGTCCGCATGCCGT…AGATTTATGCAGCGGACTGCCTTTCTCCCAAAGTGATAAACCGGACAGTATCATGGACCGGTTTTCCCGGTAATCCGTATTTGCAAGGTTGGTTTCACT; site = the 11-nt target;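 note: IS621 recombinase and bridge RNA in Escherichia coli cells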
measured property: recombinant barcode read abundance (log10)
A bare number is all that is needed in reply.

sequence code | measurement
GACACTGCTTGGGTTCTAACCTGTTGCCT (site GAAACTGCTAG) | 0.274

Q: Fill in reported recombinant barcode read abundance (log10) for this entry: AGACTAACTTGGGTTCTAACCTGTTGCTT (site GGACTAACTAG)
A: 0.0387

Q: Let me know recorded recombinant barcode read abundance (log10) for GCCCTGCCTTGGGTTCTAACCTGTTGCCT (site GCACTGCCTAG) , thanks.
A: 0.705

Q: Tell me its recombinant barcode read abundance (log10) given CGTGGTCCTTGGGTTCTAACCTGTTGCGT (site CGTGGTCCTAG) as the entry.
A: 0.224

Q: Give recorded recombinant barcode read abundance (log10). GAAGTCTCTTGGGTTCTAACCTGTTGCCT (site GTAGTCCCTAG)
A: 0.0661

Q: Tell us which recombinant barcode read abundance (log10) value is on record for GTTCCGGCTTGGGTTCTAACCTGTTGCCT (site GTTTCGGCTAG)
A: 0.373

Q: Consider the sequence TAGGCTACTTGGGTTCTAACCTGTTGCAC (site TAGGCTACTAT) and give its recorded recombinant barcode read abundance (log10).
A: 0.147

Q: Supply recombinant barcode read abundance (log10) value. Item: GGAGCGTCTTGGGTTCTAACCTGTTGCGT (site GGAGCGTCTAC)
A: 1.61

Q: Kindly indicate its recorded recombinant barcode read abundance (log10). Item: ATGCTAACTTGGGTTCTAACCTGTTGCCT (site ATGCTAACTAG)
A: 1.62

Q: Look up and state reported recombinant barcode read abundance (log10) for GACAAACCTTGGGTTCTAACCTGTTGCGG (site GACAAACCTCC)
A: 1.64
